# Tested on: GM3
# Test Protocol: GM3 Elisa assay
# Format: cell-based
# Test Settings: Table 3 (IC 50 Values); B16-FO cells; read-out: IC50_uM_Mean
Measurement Type: IC50

| Compound | Study Target | Measurement Type | Result |
| --- | --- | --- | --- |
| COc1ccc(OCCCN(C(=O)CCCCC(=O)c2ccc(OC)cc2)[C@H](CN2CCCC2)[C@H](O)c2ccc(O)cc2)cc1 | GM3 | IC50 | 3000 to 10000 nM |
| COCCOc1ccc(C(=O)CCCC(=O)N[C@H](CN2CC[C@H](O)C2)[C@H](O)c2ccc(OCCCCF)cc2)cc1 | GM3 | IC50 | ≤ 100 nM |
| O=C(CCCCCS(=O)(=O)C1CCCCC1)N[C@H](CN1CC[C@@H](F)C1)[C@H](O)c1ccc(OCc2ccccc2)cc1 | GM3 | IC50 | ≤ 100 nM |
| COc1ccc(OCCCC(=O)N[C@H](CN2CC[C@H](O)C2)[C@H](O)c2ccc(OC(C)C)cc2)cc1 | GM3 | IC50 | ≤ 100 nM |
| COC1CCC(OCCC(=O)N[C@H](CN2C(C)CCCC2C)[C@@H](O)c2ccc3c(c2)OCCO3)CC1 (stereo partly shown) | GM3 | IC50 | 3000 to 10000 nM |
| COc1ccc(OCCC(=O)N[C@H](CN2CCC(C)CC2)[C@H](O)c2ccc3c(c2)OCCO3)cc1 | GM3 | IC50 | 3000 to 10000 nM |
| CC(=O)CCCCCC(=O)N[C@H](CN1CCCC1)[C@H](O)c1ccc(OC(F)(F)F)cc1 | GM3 | IC50 | 3000 to 10000 nM |

###

# Test system: GM3
# Test Protocol: GM3 Elisa assay
# Type: cell-based
# Test Settings: Table 3 (IC 50 Values); B16-FO cells; read-out: IC50_uM_Mean
# Protocol: B16-FO cells from ATCC (American Tissue Culture Collection) were grown in DMEM media (ATCC) with 10% Fetal Bovine Serum (Hyclone) and Pen/Step/Glutamine (Biowhittaker). […] The plates were washed 3 times with TBS, flicked and blotted and 100 μl of Quantablu (Pierce) was added to the wells and incubated for 1 hour then read on a Fluorometer at Ex 325 and Em 420. The data was then analyzed using standard programs.

| Smiles | IC50 |
| --- | --- |
| O=C(CCCOn1nnc2ccccc21)N[C@H](CN1CC[C@@H](F)C1)[C@H](O)c1ccc2c(c1)OCCO2 | 1000 to 3000 nM |
| O=C(N[C@H](CO)[C@H](O)c1ccc2c(c1)OC(F)(F)O2)OCc1ccccc1 | 3000 to 10000 nM |
| COc1ccc(C(=O)CCCCC(=O)N[C@H](CN2CCCC2)[C@H](O)c2ccc(OC)c(F)c2)cc1 | ≤ 100 nM |
| COc1ccc(C(=O)CCCCCC(=O)N[C@H](CNC2CCCCC2)[C@H](O)c2ccc3c(c2)OCCO3)cc1 | 3000 to 10000 nM |
| COc1ccc(CN(C(=O)CCCCC(=O)c2ccc(OC)cc2)[C@H](CN2CCCC2)[C@H](O)c2ccc(O)cc2)cc1 | 3000 to 10000 nM |
| CCCCCCCC(=O)N[C@H](CN1CCCC1)[C@H](O)c1ccc(C(F)(F)F)cc1 | 1000 to 3000 nM |
| CCCCCCOc1ccc([C@@H](O)[C@@H](CN2CCCC2)NC(=O)CCCC(=O)c2ccc(OCCOC)cc2)cc1 | ≤ 100 nM |
